Reference for the values: the supplement of paper PMC11061612

System: SW837 (Colorectal Carcinoma)
assayComment: combination Emax (second highest fraction inhibited in the dose matrix, 72 h); higher = more inhibition; extreme values may be limits of the assay
Field: combination Emax. Provide a value for each of the compounds that follow.
Answers are plain numbers.

Cc1c2c(nn1C)CSCc1cc(n(C)n1)CSc1cc(c3ccccc3c1)OCCCc1c(C(=O)O)n(C)c3c-2c(Cl)ccc13 [AZD5991] + C[C@@H](Nc1cc(F)cc(F)c1)c1cc(C(=O)N(C)C)cc2c(=O)cc(N3CCOCC3)oc12 [AZD8186] (first compound max 1 µM, 7x7, partner max 3 µM)
0.188
Cc1c2c(nn1C)CSCc1cc(n(C)n1)CSc1cc(c3ccccc3c1)OCCCc1c(C(=O)O)n(C)c3c-2c(Cl)ccc13 [AZD5991] + C[C@@H]1COCCN1C2=NC(=NC(=C2)C3(CC3)[S@](=N)(=O)C)C4=C5C=CNC5=NC=C4 [AZD6738] (first compound max 1 µM, 7x7, partner max 10 µM)
0.354
COc1nnc2ccc(N3CCC(c4ccc(OCCN5CCN(C)C(=O)[C@H]5C)cc4)CC3)nn12 [AZD5153] + C=CCn1c(=O)c2cnc(Nc3ccc(N4CCN(C)CC4)cc3)nc2n1-c1cccc(C(C)(C)O)n1 [AZD1775] (first compound max 1 µM, partner max 1 µM)
0.715

Param readout= combination Emax; system= SW837 (Colorectal Carcinoma); entry= CC(=O)c1c(C)c2cnc(Nc3ccc(N4CCNCC4)cn3)nc2n(C2CCCC2)c1=O [Palbociclib] + Cc1c2c(nn1C)CSCc1cc(n(C)n1)CSc1cc(c3ccccc3c1)OCCCc1c(C(=O)O)n(C)c3c-2c(Cl)ccc13 [AZD5991] (first compound max 10 µM, 7x7, partner max 1 µM) ; returns value. 0.161

###

Tested on: TOV-112D (Ovarian Carcinoma);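 also: after 72 h of two-drug dosing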
assayComment: Bliss excess, mean over the matrix (fraction); higher = more synergy
Field: Bliss excess. Provide a value for each of the molecules that follow.
Give bare numbers.

Cn1cnc2c(F)c(Nc3ccc(Br)cc3Cl)c(C(=O)NOCCO)cc21 [Selumetinib] + CC(C)n1c(=O)n(C)c2cnc3cc(F)c(-c4ccc(OCCCN5CCCCC5)nc4)cc3c21 [AZD1390] (first compound max 10 µM, 7x7, partner max 0.3 µM)
-0.0262

Please examine the following record next.
Given the entry Cc1cc2ncnn2cc1Nc1ncc2c(n1)n(C1CCOCC1)c(=O)n2C [AZD7648] + O=C(c1cc(Cc2n[nH]c(=O)c3ccccc23)ccc1F)N1CCN(C(=O)C2CC2)CC1 [Olaparib] (first compound max 10 µM, 7x7, partner max 10 µM) , report its measured Bliss excess. -0.0285

###

Tested on: SW1417 (Colorectal Carcinoma)
assayComment: combination Emax (second highest fraction inhibited in the dose matrix, 72 h); higher = more inhibition; extreme values may be limits of the assay
Field: combination Emax. Provide a value for each of the molecules that follow.
Numbers only.

C[C@@H](c1ccc2nccn2c1)n1nnc2ncc(-c3cnn(C)c3)nc21 [Savolitinib] + CC1(C)CCC(CN2CCN(c3ccc(C(=O)NS(=O)(=O)c4ccc(NCC5CCOCC5)c([N+](=O)[O-])c4)c(Oc4cnc5[nH]ccc5c4)c3)CC2)=C(c2ccc(Cl)cc2)C1 [Venetoclax] (first compound max 1 µM, 7x7, partner max 1 µM)
0.126
CC1(C)CCC(CN2CCN(c3ccc(C(=O)NS(=O)(=O)c4ccc(NCC5CCOCC5)c([N+](=O)[O-])c4)c(Oc4cnc5[nH]ccc5c4)c3)CC2)=C(c2ccc(Cl)cc2)C1 [Venetoclax] + CCN(CCO)CCCOc1ccc2c(Nc3cc(CC(=O)Nc4cccc(F)c4)[nH]n3)ncnc2c1 [AZD2811] (first compound max 1 µM, 7x7, partner max 1 µM)
0.209
NC1(C(=O)N[C@@H](CCO)c2ccc(Cl)cc2)CCN(c2ncnc3[nH]ccc23)CC1 [Capivasertib] + COc1nnc2ccc(N3CCC(c4ccc(OCCN5CCN(C)C(=O)[C@H]5C)cc4)CC3)nn12 [AZD5153] (first compound max 10 µM, 7x7, partner max 1 µM)
0.482

Given the entry Cc1c2c(nn1C)CSCc1cc(n(C)n1)CSc1cc(c3ccccc3c1)OCCCc1c(C(=O)O)n(C)c3c-2c(Cl)ccc13 [AZD5991] + Cn1cnc2c(F)c(Nc3ccc(Br)cc3Cl)c(C(=O)NOCCO)cc21 [Selumetinib] (first compound max 1 µM, 7x7, partner max 3 µM) , report its measured combination Emax. 0.527
